Documented pKi across a set of compounds
- Target or system: MCL-1 (Homo sapiens (Human))
- Sequence (Q07820 172-327): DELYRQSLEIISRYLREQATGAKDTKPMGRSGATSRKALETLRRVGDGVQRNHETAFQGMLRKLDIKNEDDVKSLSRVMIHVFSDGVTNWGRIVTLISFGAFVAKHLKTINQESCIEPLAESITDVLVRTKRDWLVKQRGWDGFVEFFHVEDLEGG
- Method summary: Fluorescence polarization competition assay (FPCA), displacement of FITC-Bak from MCL-1
- Assay type: binding
- Setup conditions: Table 3; FITC-Bak peptide displacement; read-out: MCL-1 Affinity Ki
# reply with the number alone; pKi is -log10 of concentration in mol/L

Recorded results for 3 compounds are shown here.
INSERT INTO assay_data (compound, target_or_system, meas_value) VALUES
  ('Cc1cc(OCCCn2nc(C(=O)O)c3cc(Cl)ccc32)cc(C)c1Cl', 'MCL-1 (Homo sapiens (Human))', 5.24),
  ('Cc1cc(Oc2ccc(Cn3nc(C(=O)NS(=O)(=O)c4ccc(NCc5cccnc5)c([N+](=O)[O-])c4)c4cc(Cl)ccc43)cc2)cc(C)c1Cl', 'MCL-1 (Homo sapiens (Human))', 6.28),
  ('Cc1cc(Oc2ccc(Cn3nc(C(=O)NS(=O)(=O)c4ccc(N5CCOCC5)c([N+](=O)[O-])c4)c4cc(Cl)ccc43)cc2)cc(C)c1Cl', 'MCL-1 (Homo sapiens (Human))', 6.49);

**Q:** Item `Cc1cc(Oc2ccc(Cn3nc(C(=O)NS(=O)(=O)c4ccc([N+](=O)[O-])c(NCc5cccnc5)c4)c4cc(Cl)ccc43)cc2)cc(C)c1Cl` has what recorded pKi?
**A:** 6.32

**Q:** Item `Cc1cc(Oc2ccc(Cn3nc(C(=O)NS(=O)(=O)c4ccc([N+](=O)[O-])c(NCc5ccco5)c4)c4cc(Cl)ccc43)cc2)cc(C)c1Cl` has what recorded pKi?
**A:** 5.94

**Q:** Item `Cc1cc(Oc2ccc(Cn3nc(C(=O)NS(=O)(=O)c4ccc(Cl)cc4)c4cc(Cl)ccc43)cc2)cc(C)c1Cl` has what recorded pKi?
**A:** 6.55

**Q:** Item `Cc1cc(OCCCn2nc(C(=O)NS(=O)(=O)c3ccc(NCc4ccco4)c([N+](=O)[O-])c3)c3cc(Cl)ccc32)cc(C)c1Cl` has what recorded pKi?
**A:** 6.32

**Q:** Item `CCN1CCN(c2cc(S(=O)(=O)NC(=O)c3nn(Cc4ccc(Oc5cc(C)c(Cl)c(C)c5)cc4)c4ccc(Cl)cc34)ccc2[N+](=O)[O-])CC1` has what recorded pKi?
**A:** 4.91

**Q:** Item `Cc1cc(OCCCn2nc(C(=O)NS(=O)(=O)c3ccc(N4CCOCC4)c([N+](=O)[O-])c3)c3cc(Cl)ccc32)cc(C)c1Cl` has what recorded pKi?
**A:** 6.04

All values here come from patent US11760752B2.
